tested on: CD2F1 mice, L1210 leukemia ip, survival T/C; assay: NCI In Vivo Anticancer Drug Screen. Data for tumor model L1210 Leukemia (intraperitoneal) in CD2F1 (CDF1) mice; settings: endpoint: mean survival time; dose: 200.0 mg/kg/injection; schedule: Q01DX009 (ip); vehicle: other; higher = longer survival
Toxic doses and inconclusive results are not listed.
Quick reference: T/C of the listed items.

Here's what some known entries look like.
1. O=C(NC(CSSCC(NC(=O)OCc1ccccc1)C(=O)O)C(=O)O)OCc1ccccc1 (stereo unspecified)    95 % of control
2. CCOC(=O)CC1=Cc2c(OC)ccc(OC)c2CC1    88 % of control
3. O=P(c1ccccc1)(c1ccccc1)c1ccccc1 (tested in a mixture with another compound)    103 % of control
4. CCCCCCCCCCC(=O)CCCCC    107 % of control
5. O=C(O)CCCc1ccc(Oc2ccccc2)cc1    95 % of control

Now look at this one.
Input line: Reported T/C, molecule `O=C(C1CCC2(CCCCC2)CC1)n1ccnc1` : ____
Output line: 97 % of control

====

test system: CD2F1 mice, L1210 leukemia ip, survival T/C; assay: NCI In Vivo Anticancer Drug Screen. Data for tumor model L1210 Leukemia (intraperitoneal) in CD2F1 (CDF1) mice; conditions: endpoint: mean survival time; dose: 100.0 mg/kg/injection; schedule: Q04DX003 (ip); vehicle: saline; higher = longer survival
Toxic doses and inconclusive results are not listed.
Quick reference: T/C of the listed items.

1. NC(=O)NC1OC(CO)C(O)C(O)C1O (configuration not stated)    100 % of control
2. O=C(O)C1CCCC(C(=O)O)[N-]1.O=C(O)C1CCCC(C(=O)O)[N-]1.[Cr+2] (configuration not stated)    104 % of control
3. NP(N)(=O)c1ccccc1    94 % of control

Input line: Reported T/C, molecule `OCC(F)(F)C(F)(F)C(F)(F)CO` : ____
Output line: 101 % of control

Input line: Reported T/C, molecule `CCC/C=N\O` : ____
Output line: 110 % of control

Input line: Reported T/C, molecule CN(C)C(c1ccccc1)P(=O)(O)O (configuration not stated) : ____
Output line: 98 % of control

Input line: Reported T/C, molecule `O=[N+]([O-])c1ccc(N/N=C/c2cccc(CO)c2)c([N+](=O)[O-])c1` : ____
Output line: 94 % of control

====

system: CD2F1 mice, L1210 leukemia ip, survival T/C; assay: NCI In Vivo Anticancer Drug Screen. Data for tumor model L1210 Leukemia (intraperitoneal) in CD2F1 (CDF1) mice; conditions: endpoint: mean survival time; dose: 100.0 mg/kg/injection; schedule: Q01DX001 (ip); vehicle: Klucel (hydroxypropylcellulose) (HPC); higher = longer survival
Toxic doses and inconclusive results are not listed.
Quick reference: T/C of the listed items.

1. Nc1ccc2nsnc2c1    90 % of control

Input line: Reported T/C, compound `O=C(/C=C/c1ccccn1)c1ccc(Cl)cc1` : ____
Output line: 97 % of control

Input line: Reported T/C, compound CCOC(=O)Nc1cc2c(c(N)n1)NC(CN(C)c1ccccc1)CN2 (centres undefined) : ____
Output line: 94 % of control

Input line: Reported T/C, compound `O=[N+]([O-])c1ccc(/C=C/C2(CCl)OCCO2)cc1` : ____
Output line: 96 % of control

Input line: Reported T/C, compound `COC(=O)c1ccccc1NC(=O)Nc1cccc(OC)c1` : ____
Output line: 95 % of control

Input line: Reported T/C, compound Cc1ccc(S(=O)(=O)/N=S(/C)CC/S(C)=N/S(=O)(=O)c2ccc(C)cc2)cc1 (centres undefined) : ____
Output line: 97 % of control

====

test system: CD2F1 mice, L1210 leukemia ip, survival T/C; assay: NCI In Vivo Anticancer Drug Screen. Data for tumor model L1210 Leukemia (intraperitoneal) in CD2F1 (CDF1) mice; conditions: endpoint: mean survival time; dose: 37.5 mg/kg/injection; schedule: Q01DX009 (ip); vehicle: saline
Toxic doses and inconclusive results are not listed. How the source made its calls: active means survival T/C of 150% or more; inactive means T/C below 125% in these data.
Allowed answers: YES = active, NO = inactive

These solved cases illustrate the format of a correct answer.
1) S=C([S-])N1CCCCC1.S=C([S-])N1CCCCC1.[Zn]    NO
2) CC/C(=N\[N+](C)(C)C)c1ccccc1    NO
3) CCCCCCCCCCCCCCCCOS(=O)(=O)O    NO

As a next step, examine the molecule that follows.
Input line: // param item: `CC[n+]1ccc(Nc2ccc(NC(=O)c3ccc(Nc4cc[n+](CC)c5ccc([N+](=O)[O-])cc45)cc3)cc2)cc1` ; yields the recorded call
Output line: YES

====

test system: CD2F1 mice, L1210 leukemia ip, survival T/C; assay: NCI In Vivo Anticancer Drug Screen. Data for tumor model L1210 Leukemia (intraperitoneal) in CD2F1 (CDF1) mice; conditions: endpoint: mean survival time; dose: 100.0 mg/kg/injection; schedule: Q01DX005 (ip); vehicle: water; higher = longer survival
Inconclusive results and toxic doses are left out.
Observed property: T/C

1) Cn1c(=O)c2c(ncn2CCNCC(O)c2ccc(O)c(O)c2)n(C)c1=O (stereo not given)    101 % of control

Input line: Reported T/C, molecule Nc1cc(=O)c2nnn(C3OC(CO)C(O)C3O)c2[nH]1 (stereo not given) : ____
Output line: 87 % of control

Input line: Reported T/C, molecule Cc1cn(C2CC3OP(=O)(N(C)C)OCC3O2)c(=O)[nH]c1=O (stereo not given) : ____
Output line: 97 % of control

Input line: Reported T/C, molecule `O=c1[nH][nH]c2nccnc12` : ____
Output line: 98 % of control

Input line: Reported T/C, molecule Cc1cn(C2OC(CO)C(O)C2O)c([Se])nc1=O (stereo not given) : ____
Output line: 90 % of control

====

Quick reference: T/C of the listed items.
tested on: CD2F1 mice, L1210 leukemia ip, survival T/C; assay: NCI In Vivo Anticancer Drug Screen. Data for tumor model L1210 Leukemia (intraperitoneal) in CD2F1 (CDF1) mice; conditions: endpoint: mean survival time; dose: 100.0 mg/kg/injection; schedule: Q01DX005 (ip); vehicle: distilled water + Tween-80; higher = longer survival
Toxic doses and inconclusive results are not listed.

Here's what some known entries look like.
1. Cc1ccc(Nc2ncnc3c2ncn3C2OC(CO)C(O)C2O)cc1 (stereo unspecified)    96 % of control
2. COC(=O)CNc1ccn(C2OC(CO)C(O)C2O)c(=O)n1 (stereo unspecified)    97 % of control
3. Cc1cn(C2CC(O)C(CS[As](C)C)O2)c(=O)[nH]c1=O (stereo unspecified)    93 % of control
4. Cc1ccccc1-c1nc2c([nH]1)c(=O)n(C)c(=O)n2C    88 % of control

Input line: Reported T/C, compound COC1OC2C(CO)OC(n3ncc4c3ncn3cnnc43)C2O1 (stereo unspecified) : ____
Output line: 96 % of control

Input line: Reported T/C, compound CNc1nc2c(N)ncnc2n1C1OC(CO)C(O)C1O (stereo unspecified) : ____
Output line: 100 % of control

====

Quick reference: T/C of the listed items.
test system: CD2F1 mice, L1210 leukemia ip, survival T/C; assay: NCI In Vivo Anticancer Drug Screen. Data for tumor model L1210 Leukemia (intraperitoneal) in CD2F1 (CDF1) mice; conditions: endpoint: mean survival time; dose: 50.0 mg/kg/injection; schedule: Q01DX009 (ip); vehicle: saline with Tween-80; higher = longer survival
Toxic doses and inconclusive results are not listed.

1) O=S(=O)(/N=C/c1ccccc1)c1ccc(Cl)cc1    100 % of control
2) O=C(O)/C(Br)=C/c1ccccc1    100 % of control
3) Nc1ccccc1Nc1ccncc1    101 % of control

Input line: Reported T/C, compound `Cn1c(-c2ccccc2)cc(=O)cc1-c1ccccc1` : ____
Output line: 96 % of control

Input line: Reported T/C, compound `CC(C)CN1CCOCC1` : ____
Output line: 95 % of control

====

tested on: CD2F1 mice, L1210 leukemia ip, survival T/C; test: NCI In Vivo Anticancer Drug Screen. Data for tumor model L1210 Leukemia (intraperitoneal) in CD2F1 (CDF1) mice; settings: endpoint: mean survival time; dose: 300.0 mg/kg/injection; schedule: Q01DX001 (ip); vehicle: saline; higher = longer survival
Inconclusive results and toxic doses are left out.
Quick reference: T/C of the listed items.

Here's what some known entries look like.
1. CC1=C(/C=C/C(C)=C/C=C/C(C)=C/CO)C(C)(C)CCC1    103 % of control
2. CN(C1=CC(=O)C(=O)c2ccccc21)c1ccccc1    100 % of control
3. CC/C=C(\C)C(CCC)(CN=O)C(=O)OCC (configuration not stated)    95 % of control
4. CC1CC2CCC1C2O (configuration not stated)    87 % of control
5. CN1CCCN(C)C1    102 % of control

Input line: Reported T/C, compound `NOCc1ccccc1CON` : ____
Output line: 100 % of control

Input line: Reported T/C, compound `C=C[C](=C)[Pb]([CH2]C)([CH2]C)[CH2]C` : ____
Output line: 107 % of control
